- test.target: Cellular tumor antigen p53 (Homo sapiens)
- run.description: TOX21_p53_BLA_p5_ratio: Tox21 HCT-116 p53 Agonism Beta-lactamase Assay, Ratio, Phase 5 (AID 2283599)
Inconclusive results are not listed. Activity calls are given as the source filed them. Rule for the calls: active = hit-call score of the fitted dose curve at least 0.9, where 1 is the maximum; inconclusive = response in the unintended direction; inactive = score below 0.9.
endpoint.name: AC50

>  <compound>
C[C@]12C=CC(=O)C=C1CC[C@@H]1[C@@H]2[C@@H](O)C[C@@]2(C)[C@H]1CC[C@]2(O)C(=O)COC(=O)CCC(=O)O

>  <recorded.result>
inactive

$$$$
>  <compound>
C=CC1=C(C(=O)O)N2C(=O)[C@@H](NC(=O)C(=NOCC(=O)O)c3csc(N)n3)[C@H]2SC1

>  <recorded.result>
inactive

$$$$
>  <compound>
CC(=O)Nc1ccccc1C

>  <recorded.result>
inactive

$$$$
>  <compound>
CCc1cc(C(N)=S)ccn1

>  <recorded.result>
inactive

$$$$
>  <compound>
O=c1[nH]cnc2[nH]cc(CN3CCCCC3)c12

>  <recorded.result>
inactive

$$$$
>  <compound>
O=C1NCN(c2ccccc2)C12CCN(CCCC(c1ccc(F)cc1)c1ccc(F)cc1)CC2

>  <recorded.result>
45 µM (active)

$$$$
>  <compound>
O=C(O)c1cc(-c2ccccc2)nc2ccccc12

>  <recorded.result>
inactive

$$$$
>  <compound>
CC(O)COC(C)(C)C (configuration not stated)

>  <recorded.result>
inactive

$$$$
>  <compound>
CCCCNC(N)=O

>  <recorded.result>
inactive

$$$$
>  <compound>
CCOC(=O)c1cccnc1

>  <recorded.result>
inactive

$$$$
>  <compound>
CC(C)(C)OC(=O)c1ccccc1C(=O)O

>  <recorded.result>
inactive

$$$$
>  <compound>
C[C@@H](O[C@H]1OCCN(Cc2n[nH]c(=O)[nH]2)[C@H]1c1ccc(F)cc1)c1cc(C(F)(F)F)cc(C(F)(F)F)c1

>  <recorded.result>
34.2 µM (active)

$$$$

###

- run.description: TOX21_p53_BLA_p4_viability: Viability Assessment in the Tox21 HCT-116 p53 Agonism Beta-lactamase Assay, Phase 4 (AID 2283597);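 note: hits lower the luminescence signal meaning cytotoxicity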
Records with an inconclusive call do not appear. Activity calls are given as the source filed them. Rule for the calls: active = hit-call score of the fitted dose curve at least 0.9, where 1 is the maximum; inconclusive = response in the unintended direction; inactive = score below 0.9.
Possible outcomes: active, inactive

>  <molecule>
Cc1cc(CC(=O)O)c(C)n1-c1ccc(Cl)cc1

>  <answer.label>
inactive

$$$$
>  <molecule>
CON=C(C(=O)N[C@@H]1C(=O)N2C(C(=O)O)=C(COC(N)=O)CS[C@H]12)c1ccco1

>  <answer.label>
inactive

$$$$
>  <molecule>
CC(=O)O[C@@H]1C(=O)O[C@@H]2[C@H]1OC(=O)[C@@H]2OC(C)=O

>  <answer.label>
inactive

$$$$
>  <molecule>
CC(C)(C)C(=O)O

>  <answer.label>
inactive

$$$$
>  <molecule>
Nc1nnnn1-c1ccccc1

>  <answer.label>
inactive

$$$$
>  <molecule>
Cc1cccc(C)c1NC(=O)c1ccccc1C(=O)O

>  <answer.label>
inactive

$$$$
>  <molecule>
CCNC(=O)C(C)OC(=O)Nc1ccccc1 (stereo unspecified)

>  <answer.label>
inactive

$$$$
>  <molecule>
CC(C)(O)c1ccccc1CC[C@@H](SCC1(CC(=O)O)CC1)c1cccc(/C=C/c2ccc3ccc(Cl)cc3n2)c1

>  <answer.label>
active

$$$$
>  <molecule>
CN1CCC(OC(=O)C(Oc2ccc(Cl)cc2)Oc2ccc(Cl)cc2)CC1

>  <answer.label>
inactive

$$$$
>  <molecule>
CC(C)C1OCCN1CCOC(=O)NCCCCCCNC(=O)OCCN1CCOC1C(C)C (stereo unspecified)

>  <answer.label>
inactive

$$$$
>  <molecule>
NC(=O)c1ccc(N)cc1

>  <answer.label>
inactive

$$$$

###

- run.description: TOX21_p53_BLA_p5_viability: Viability Assessment in the Tox21 HCT-116 p53 Agonism Beta-lactamase Assay, Phase 5 (AID 2283600)
Inconclusive results are not listed. Activity calls are given as the source filed them. The calls were made as follows: active = hit-call score of the fitted dose curve at least 0.9, where 1 is the maximum; inconclusive = response in the unintended direction; inactive = score below 0.9.

>  <molecule>
O=C1OC(=O)c2ccccc21

>  <outcome>
inactive

$$$$
>  <molecule>
CC(C)C[C@H](NC(=O)CNC(=O)[C@H](Cc1ccc(O)cc1)NC(=O)[C@H](CO)NC(=O)[C@H](Cc1c[nH]c2ccccc12)NC(=O)[C@H](Cc1cnc[nH]1)NC(=O)[C@@H]1CCC(=O)N1)C(=O)N[C@@H](CCCN=C(N)N)C(=O)N1CCC[C@H]1C(=O)NCC(N)=O (stereo in doubt)

>  <outcome>
inactive

$$$$
>  <molecule>
CCCCOC(=O)COc1ccc(Cl)cc1Cl

>  <outcome>
inactive

$$$$
>  <molecule>
N=C(N)n1cccn1

>  <outcome>
inactive

$$$$
>  <molecule>
COc1ccc2cc(CCC(C)=O)ccc2c1

>  <outcome>
inactive

$$$$
>  <molecule>
O=C1NC(=O)[C@@]2(CCOc3ccc(F)cc32)N1

>  <outcome>
inactive

$$$$
>  <molecule>
CCCCOC(=O)/C=C\C(=O)OCCCC

>  <outcome>
inactive

$$$$
>  <molecule>
CC(COc1ccccc1)N(CCCl)Cc1ccccc1 (stereo unspecified)

>  <outcome>
inactive

$$$$
>  <molecule>
CC(CO)(CO)CO

>  <outcome>
inactive

$$$$
>  <molecule>
O=C1C=CC(=O)N1

>  <outcome>
inactive

$$$$
>  <molecule>
COC(=O)CCCCCCCC(=O)OC

>  <outcome>
inactive

$$$$

###

- run.description: TOX21_p53_BLA_p4_viability: Viability Assessment in the Tox21 HCT-116 p53 Agonism Beta-lactamase Assay, Phase 4 (AID 2283597);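 note: hits lower the luminescence signal meaning cytotoxicity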
Records with an inconclusive call do not appear. Activity calls are given as the source filed them. How the source made its calls: active means hit-call score of the fitted dose curve at least 0.9, where 1 is the maximum; inconclusive means response in the unintended direction; inactive means score below 0.9.
Possible outcomes: 1 (yes) (active), 0 (no) (inactive)

>  <structure.smiles.string>
C1CCC2=NCCCN2CC1

>  <answer.label>
0 (no)

$$$$
>  <structure.smiles.string>
Cc1[nH]c(=O)c(C#N)cc1-c1ccc2nccn2c1

>  <answer.label>
0 (no)

$$$$
>  <structure.smiles.string>
Cc1ccc2nc(N)[nH]c(=O)c2c1Sc1ccncc1

>  <answer.label>
0 (no)

$$$$
>  <structure.smiles.string>
c1ccc(CNCCNCc2ccccc2)cc1

>  <answer.label>
0 (no)

$$$$
>  <structure.smiles.string>
CNC(=O)Nc1ccc(Cl)c(Cl)c1

>  <answer.label>
0 (no)

$$$$
>  <structure.smiles.string>
CCOC(=O)n1ccn(C)c1=S

>  <answer.label>
0 (no)

$$$$
>  <structure.smiles.string>
O=C(c1ccccc1)c1cc(Cl)ccc1O

>  <answer.label>
0 (no)

$$$$
>  <structure.smiles.string>
O=C(OCCO)c1ccccc1O

>  <answer.label>
0 (no)

$$$$
>  <structure.smiles.string>
O=C1c2ccccc2C(=O)c2cc(Cl)ccc21

>  <answer.label>
0 (no)

$$$$
>  <structure.smiles.string>
CCC(=O)OCc1ccc(OC)cc1

>  <answer.label>
0 (no)

$$$$
>  <structure.smiles.string>
CN[C@@H]1[C@H](O)[C@H](NC)[C@H]2O[C@@]3(O)C(=O)C[C@@H](C)O[C@H]3O[C@@H]2[C@H]1O

>  <answer.label>
0 (no)

$$$$
>  <structure.smiles.string>
Cn1cnc2c(F)c(Nc3ccc(Br)cc3Cl)c(C(=O)NOCCO)cc21

>  <answer.label>
0 (no)

$$$$
>  <structure.smiles.string>
Nc1ccc(N)c2ccccc12

>  <answer.label>
1 (yes)

$$$$

###

- test.target: Oxysterols receptor LXR-alpha (Homo sapiens) (UniProt Q13133)
- Sequence (Q13133 whole entry, looked up): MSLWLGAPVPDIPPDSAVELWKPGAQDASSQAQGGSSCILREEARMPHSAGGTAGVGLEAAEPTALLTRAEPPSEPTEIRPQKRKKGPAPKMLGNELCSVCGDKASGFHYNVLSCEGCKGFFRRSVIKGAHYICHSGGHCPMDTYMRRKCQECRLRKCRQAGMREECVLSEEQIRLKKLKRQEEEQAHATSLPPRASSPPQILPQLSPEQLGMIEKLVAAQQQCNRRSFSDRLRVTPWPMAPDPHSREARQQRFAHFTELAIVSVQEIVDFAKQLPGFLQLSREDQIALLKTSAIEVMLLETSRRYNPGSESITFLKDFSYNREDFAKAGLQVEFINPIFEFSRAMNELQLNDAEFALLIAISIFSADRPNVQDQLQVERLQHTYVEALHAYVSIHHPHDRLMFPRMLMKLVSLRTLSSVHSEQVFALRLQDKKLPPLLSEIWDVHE
- run.description: ATG_LXRa_TRANS: Attagene TRANS-FACTORIAL HepG2 Assay for human Liver X Receptor alpha (LXRa) (AID 2282980)
- condition.summary: HepG2 Attagene TRANS reporter, LXRa transactivation
Results filed as inconclusive are left out. Calls of active or inactive are those of the source. The calls were made as follows: active = hit-call score of the fitted dose curve at least 0.9, where 1 is the maximum; inconclusive = response in the unintended direction; inactive = score below 0.9.
endpoint.name: outcome

>  <compound>
CCO[Si](CCCN)(OCC)OCC

>  <endpoint.name>
outcome

>  <recorded.result>
inactive

$$$$
>  <compound>
OCCc1ccccn1

>  <endpoint.name>
outcome

>  <recorded.result>
inactive

$$$$
>  <compound>
CCCCCCC1CCC(=O)O1 (stereo not drawn)

>  <endpoint.name>
outcome

>  <recorded.result>
inactive

$$$$

###

- test.target: Cellular tumor antigen p53 (Homo sapiens)
- run.description: TOX21_p53_BLA_p4_ratio: Tox21 HCT-116 p53 Agonism Beta-lactamase Assay, Ratio, Phase 4 (AID 2283601)
Inconclusive results are not listed. Calls of active or inactive are those of the source. The calls were made as follows: active = hit-call score of the fitted dose curve at least 0.9, where 1 is the maximum; inconclusive = response in the unintended direction; inactive = score below 0.9.
Possible outcomes: class 1 (active), class 0 (inactive)

>  <compound>
c1coc(Cn2cccc2)c1

>  <answer.label>
class 0

$$$$
>  <compound>
CNCCCN1c2ccccc2CCc2ccccc21

>  <answer.label>
class 0

$$$$
>  <compound>
O=C(O)COC(=O)Cc1ccccc1Nc1c(Cl)cccc1Cl

>  <answer.label>
class 0

$$$$
>  <compound>
CCCC(C)c1ccccc1O (configuration not stated)

>  <answer.label>
class 0

$$$$
>  <compound>
Oc1c(Cl)cc(Cl)c2cccnc12

>  <answer.label>
class 1

$$$$
>  <compound>
O=C1NCN(c2ccccc2)C12CCN(CCCC(c1ccc(F)cc1)c1ccc(F)cc1)CC2

>  <answer.label>
class 1

$$$$
>  <compound>
O=[N+]([O-])c1ccccc1Nc1ccccc1

>  <answer.label>
class 0

$$$$

Attribution: PubChem BioAssay (EPA / NIEHS)
